Values compiled from the RNAGym collection of RNA variant scans (doi:10.1073/pnas.2313332121).

B1: TPR t1 (parent)
chain: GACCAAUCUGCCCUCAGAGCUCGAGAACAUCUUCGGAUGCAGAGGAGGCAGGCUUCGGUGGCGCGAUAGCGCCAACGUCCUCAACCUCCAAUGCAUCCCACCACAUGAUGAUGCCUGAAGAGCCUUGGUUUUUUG

Variants of: B1
procedureDetails: polymerase ribozyme fitness, log enrichment relative to wild type (log ratio); higher = more active; in vitro selection for triplet polymerase activity
Category key, based on recorded polymerase ribozyme fitness (log ratio): range 1 (below -4), range 2 (-4 to below -2), range 3 (-2 or more)

INSERT INTO assay_data (variant, category) VALUES
  ('G47A G60U C101A', 'range 3'),
  ('C12U G120A', 'range 3'),
  ('A41U A68G', 'range 1'),
  ('C3U C22G G39U C49G C70U G110U', 'range 1'),
  ('G10A C12A C102A', 'range 2'),
  ('U87A A105U U116C', 'range 2'),
  ('G61C C79A A95G G127A', 'range 2'),
  ('C20A C31U G44C A68C G113C U116C G135C', 'range 1'),
  ('C15A G39C', 'range 2'),
  ('C13U C82G', 'range 3'),
  ('G10C G35A G69U U81G C82G C123A', 'range 2');
